# PROTOCOL TEXT: in vivo
# MEASUREMENT SETUP: rat, brain and blood, po, 3 mg/kg
# Description: AUC ( 0 to t) ratio in brain to blood of rat at 3 mg/kg, po
PROPERTY LABEL: Kp

Solved cases (5 shown):
SMILES RECORD: O=C(Cc1ccc(-n2nc(C(F)(F)F)c3c2CCCC3)cc1)N1CCCC1
NUMERIC RESULT: 0.9

SMILES RECORD: CN(C)C(=O)c1ccc(-n2nc(C(F)(F)F)c3c2CCCC3)cc1
NUMERIC RESULT: 1.3

SMILES RECORD: CN(C)C(=O)Cc1ccc(-n2nc(C(F)(F)F)c3c2CCCC3)cc1
NUMERIC RESULT: 2.8

SMILES RECORD: O=C(c1ccc(-n2nc(C(F)(F)F)c3c2CCCC3)cc1)N1CCCC1
NUMERIC RESULT: 1.5

SMILES RECORD: CS(=O)(=O)NCc1ccc(-n2nc(C(F)(F)F)c3c2CCCC3)cc1
NUMERIC RESULT: 1.6

I = O=C(c1ccc(-n2nc(C(F)(F)F)c3c2CCCC3)cc1)N1CCOCC1
II = O=C(Cc1ccc(-n2nc(C(F)(F)F)c3c2CCCC3)cc1F)N1CCCC1
III = O=S1(=O)CCCN1Cc1ccc(-n2nc(C(F)(F)F)c3c2CCCC3)cc1
Order these by Kp, descending, and give the full ranking. Use the labels to give the ranking in the order requested.
III, I, II
(III: 2.5, I: 1.2, II: 0.3)
